- Assay Target: MEK1 (Homo sapiens, UniProt Q02750, DEL33-52/S218E/S222D)
- Construct: 6-histidine tag (N); made in house; host or cells: MEK1: baculovirus / Spodoptera frugiperda Sf9; ERK1: E. coli
- Sequence (Q02750 with tags, fused parts or gaps DEL33-52/S218E/S222D): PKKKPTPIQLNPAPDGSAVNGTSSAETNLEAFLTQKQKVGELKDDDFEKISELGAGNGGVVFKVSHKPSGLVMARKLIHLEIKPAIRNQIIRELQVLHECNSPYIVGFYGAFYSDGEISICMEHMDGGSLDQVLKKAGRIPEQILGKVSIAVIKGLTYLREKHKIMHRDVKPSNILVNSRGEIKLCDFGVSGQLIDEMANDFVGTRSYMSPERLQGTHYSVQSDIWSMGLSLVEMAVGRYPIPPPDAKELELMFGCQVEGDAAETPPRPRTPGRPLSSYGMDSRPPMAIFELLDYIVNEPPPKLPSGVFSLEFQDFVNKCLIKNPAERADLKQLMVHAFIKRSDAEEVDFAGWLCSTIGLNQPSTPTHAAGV
- Assay Details: MEK1 inhibition, fluorescence polarization (IMAP) assay with ERK1 and FI-Erktide
- Type: biochemical
- Test Context: 1 nM MEK1, 25 nM ERK1, 400 μM ATP, 22 min at room temperature; read-out: pIC50 (nM); IC50 of Exemplified Compounds against MEK1 (converted)
Field: IC50. Provide a value for each of the compounds that follow.

Answered examples (3):
Cn1c(=O)cc(Nc2ccc(I)cc2F)c2c(=O)n(C[C@H](O)CO)ccc21 = < 100 nM
Cn1c(=O)c(F)c(Nc2ccc(I)cc2F)c2c(=O)n(C[C@@H](O)CO)ccc21 = < 100 nM
Cn1c(=O)cc(Nc2ccc(Br)cc2F)c2c(=O)n(C[C@@H](O)CO)ccc21 = ≥ 100 nM

Look up IC50 for the entries below, preserving their order.
1. Cn1c(=O)cc(Nc2ccc(Br)cc2F)c2c(=O)n(C[C@H](O)CO)ccc21
2. Cn1c(=O)cc(Nc2ccc(I)cc2F)c2c(=O)n(C[C@@H](O)CO)ccc21
3. Cn1c(=O)c(F)c(Nc2ccc(Br)cc2F)c2c(=O)n(C[C@@H](O)CO)ccc21
4. Cn1c(=O)cc(Nc2ccc(C3CC3)cc2F)c2c(=O)n(C[C@@H](O)CO)ccc21

1: < 100 nM; 2: < 100 nM; 3: < 100 nM; 4: ≥ 100 nM

Look up IC50 for the entries below, preserving their order.
1. Cn1c(=O)cc(Nc2ccc(Br)cc2F)c2c(=O)n(CC(O)CO)ccc21 (racemic)
2. C#Cc1ccc(Nc2c(F)c(=O)n(C)c3ccn(C[C@@H](O)CO)c(=O)c23)c(F)c1
3. Cn1c(=O)c(F)c(Nc2ccc(I)cc2F)c2c(=O)n(C[C@H](O)CO)ccc21

1: < 100 nM; 2: < 100 nM; 3: < 100 nM
